System: OVCAR-5 complex spheroids, viability
method_notes: Anticancer human tumor OVCAR-5 cell line growth inhibition;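 note: spheroids exposed to agents for seven days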
setup_conditions: second compound 0.316 µM; first compound 3.16 µM; active compounds read low
Note to self: use satisfied only for viability, T/C readings below 90%; a reading exactly at 90% still gets not satisfied.

Query string: Is viability, T/C strictly under 90% for the entry CC1COCCN1c1cc(C2(S(C)(=N)=O)CC2)nc(-c2ccnc3[nH]ccc23)n1 (configuration not stated) + NC1CCC(NC2CC2c2ccccc2)CC1 ?
Result string: satisfied

Query string: Is viability, T/C strictly under 90% for the entry COc1ccc([C@@H](O)c2cc(-c3ncnc4cc(N5CCOCC5)ccc34)c(F)cc2Cl)nn1 + NC1CCC(NC2CC2c2ccccc2)CC1 ?
Result string: satisfied

Query string: Is viability, T/C strictly under 90% for the entry CC1COCCN1c1cc(C2(S(C)(=N)=O)CC2)nc(-c2ccnc3[nH]ccc23)n1 (configuration not stated) + NC1CC1c1ccc(-c2cccc(O)c2)cc1 ?
Result string: satisfied

Query string: Is viability, T/C strictly under 90% for the entry CC(C)c1c(-c2ccccc2)nc2c(C#N)c[nH]n2c1=O + NC1CC1c1ccc(-c2cccc(O)c2)cc1 ?
Result string: not satisfied

Query string: Is viability, T/C strictly under 90% for the entry O=C(c1cc(Cc2n[nH]c(=O)c3ccccc23)ccc1F)N1CCN(C(=O)C2CC2)CC1 + NC1CC1c1ccc(-c2cccc(O)c2)cc1 ?
Result string: satisfied

Query string: Is viability, T/C strictly under 90% for the entry COc1ccc([C@@H](O)c2cc(-c3ncnc4cc(N5CCOCC5)ccc34)c(F)cc2Cl)nn1 + NC1CC1c1ccc(-c2cccc(O)c2)cc1 ?
Result string: satisfied

Query string: Is viability, T/C strictly under 90% for the entry CC1(C)CCC(CN2CCN(c3ccc(C(=O)NS(=O)(=O)c4ccc(NCC5CCOCC5)c([N+](=O)[O-])c4)c(Oc4cnc5[nH]ccc5c4)c3)CC2)=C(c2ccc(Cl)cc2)C1 + NC1CC1c1ccc(-c2cccc(O)c2)cc1 ?
Result string: not satisfied
